# Tested on: HepG2 cells
# Assay notes: MTT cytotoxicity assay, HepG2
# Type: cell-based, human
# Condition details: Homo sapiens, HepG2; MTT, 24 h; read-out: IC50 HepG2 (liver)
Parameter pIC50: see the listing below.
Would you please state pIC50, meaning minus log10 of the concentration in mol/L, as a bare number?

[
  {
    "Compound": "COC(=O)CC[C@@H](C)[C@H]1CC[C@H]2[C@@H]3CC[C@@H]4CC(O)(CNCCO)CC[C@]4(C)[C@H]3CC(=O)[C@]12C (stereo partly drawn)",
    "pIC50": 5.24
  },
  {
    "Compound": "COC(=O)CC[C@@H](C)[C@H]1CC[C@H]2[C@@H]3CC[C@@H]4CC(O)(CNCCCO)CC[C@]4(C)[C@H]3CC(=O)[C@]12C (stereo partly drawn)",
    "pIC50": 5.14
  }
]

Lab note: next compound to report on.
// recorded pIC50 for COC(=O)CC[C@@H](C)[C@H]1CC[C@H]2[C@@H]3CC[C@@H]4CC(O)(CN5CCOCC5)CC[C@]4(C)[C@H]3CC(=O)[C@]12C (stereo partly drawn) : 5.12
